- Target System: UniProt:O14744
- Sequence (O14744 whole entry): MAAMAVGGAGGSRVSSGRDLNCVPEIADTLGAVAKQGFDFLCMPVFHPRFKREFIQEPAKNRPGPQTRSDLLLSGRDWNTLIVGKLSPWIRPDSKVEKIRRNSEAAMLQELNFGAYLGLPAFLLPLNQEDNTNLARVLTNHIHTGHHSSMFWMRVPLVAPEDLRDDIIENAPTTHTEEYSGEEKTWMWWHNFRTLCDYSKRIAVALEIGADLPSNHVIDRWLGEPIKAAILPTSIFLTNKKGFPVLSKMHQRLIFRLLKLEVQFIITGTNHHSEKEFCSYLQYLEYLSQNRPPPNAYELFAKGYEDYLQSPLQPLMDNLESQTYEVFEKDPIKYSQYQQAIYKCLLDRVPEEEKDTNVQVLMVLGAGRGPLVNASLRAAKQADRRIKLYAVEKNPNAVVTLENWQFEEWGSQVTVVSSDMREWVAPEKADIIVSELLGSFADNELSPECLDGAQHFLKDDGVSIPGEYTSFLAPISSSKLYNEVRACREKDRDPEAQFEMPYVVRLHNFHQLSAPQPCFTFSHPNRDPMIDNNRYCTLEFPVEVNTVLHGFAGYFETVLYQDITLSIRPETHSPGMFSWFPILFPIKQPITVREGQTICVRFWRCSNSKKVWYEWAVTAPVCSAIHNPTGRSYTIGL
- Procedure Text: Inhibition of PRMT5 (unknown origin) assessed as reduction in methyl transfer from [3H]-SAM to biotinylated histone H4 peptide H4-20-Biotin at 100 uM pre-incubated for 3 mins before [3H]-SAM addition and measured after 45 mins by scintillation proximity assay
The source made the active and inactive calls. The calls are words filed in the database; no cut-off is given here.
Value Type: inhibition

Record excerpt, results attached:
Compound | inhibition
N=C(N)c1ccc(Oc2ccc(C(=N)N)cc2)cc1 | inactive
N=C(N)c1ccc(OCCOc2ccc(C(=N)N)cc2)cc1 | inactive
N=C(N)c1ccc(OCCCCCCOc2ccc(C(=N)N)cc2)cc1 [HEXAMIDINE] | inactive
N=C(N)c1ccc(OCCCCCCCCCCOc2ccc(C(=N)N)cc2)cc1 | 50%
CC(CCCOc1ccc(C(=N)N)cc1)Oc1ccc(C(=N)N)cc1 (stereo not given) | inactive
N=C(N)c1ccc(-c2ccc(-c3ccc(C(=N)N)cc3)o2)cc1 [FURAMIDINE] | 50%
N=C(N)c1ccc(OCCCCOc2ccc(C(=N)N)cc2)cc1 | inactive
N=C(N)c1ccc(OC/C=C/COc2ccc(C(=N)N)cc2)cc1 | inactive
N=C(N)c1ccc(OCCCOc2ccc(C(=N)N)cc2)cc1 | inactive

Note: attention shifts to another entry.
Input line: Fill blank: measured inhibition of the compound N=C(N)c1ccc(OCOc2ccc(C(=N)N)cc2)cc1 is ____.
Output line: 50%
